I'd appreciate it if you could supply LYMPH values for the items below.
Assay: Body weight, biochemical and haematological parameters in DHT-induced AGA mice (0.5% testosterone then topical treatment)
Format: in vivo, C57BL/6J mice
Settings: Day 21; 0.08 mg/Kg; unit assumed
Description: The experiments were performed on C57BL/6 J and Athymic nude mice (NU/J Foxn1^nu) of 6–7 weeks of age obtained from Animal House Facility, CSIR-Indian Institute of Integrative Medicine (IIIM), Jammu, India. […] The animals were provided with ad libitum feed (standard pellet diet) and autoclaved RO water throughout the study. The body weight of mice was measured after seven days before treatment. C57BL/6 J mice (male) were obtained from CSIR-IIIM Animal House at 7 weeks of age. […]
Counter-ions that a name gives are not always drawn.
Report the figure along with its unit, number first.

Provide one value: measured LYMPH of C[C@@H]1CCN(C(=O)CC#N)C[C@@H]1N(C)c1ncnc2[nH]ccc12 [Tofacitinib, tofacitinib citrate, reference compound] 78.8%

Provide one value: measured LYMPH of Fc1ccc(-c2cnc3[nH]cc(-c4ccnc(NC5CC5)n4)c3c2)cc1 63%

* * *

Test system: HCT-116
Assay: MTT cell viability assay HCT-116
Type: cell-based, human
Conditions: 48 h
Description: Cell viability was evaluated using an MTT colorimetric assay. Cells were seeded (10^5 cells/mL) in 96-well plates and allowed to grow overnight at 37 ℃ with 5% CO2 in a cell-culture incubator. On the following day, the cells were treated with small molecules at different concentrations (0.2–10 micro-molar) or vehicle (DMSO). Cells were then further incubated for 48 h.
I'd appreciate it if you could supply IC50 values for the items below.
Enter your answer as a number in µM; do not include the unit.

Provide one value: measured IC50 of c1coc(-c2cnc3[nH]cc(-c4ccnc(NC5CC5)n4)c3c2)c1 [MJ01] 1.89

Provide one value: measured IC50 of Fc1cccc(-c2cnc3[nH]cc(-c4ccnc(NC5CC5)n4)c3c2)c1 [MJ06] 1.52

Provide one value: measured IC50 of Nc1nccc(-c2c[nH]c3ncc(-c4cccc(F)c4)cc23)n1 [MJ07] 6.34

Provide one value: measured IC50 of CSc1ccccc1-c1cnc2[nH]cc(-c3ccnc(NC4CC4)n3)c2c1 [MJ03] 8.2

* * *

target: JAK3 (Homo sapiens, UniProt P52333); construct: purchased Promega Corporation V3701; experiment: Cell-free kinase assay JAK3; assay type: biochemical; conditions: 1mM ATP
Sequence (P52333 whole entry): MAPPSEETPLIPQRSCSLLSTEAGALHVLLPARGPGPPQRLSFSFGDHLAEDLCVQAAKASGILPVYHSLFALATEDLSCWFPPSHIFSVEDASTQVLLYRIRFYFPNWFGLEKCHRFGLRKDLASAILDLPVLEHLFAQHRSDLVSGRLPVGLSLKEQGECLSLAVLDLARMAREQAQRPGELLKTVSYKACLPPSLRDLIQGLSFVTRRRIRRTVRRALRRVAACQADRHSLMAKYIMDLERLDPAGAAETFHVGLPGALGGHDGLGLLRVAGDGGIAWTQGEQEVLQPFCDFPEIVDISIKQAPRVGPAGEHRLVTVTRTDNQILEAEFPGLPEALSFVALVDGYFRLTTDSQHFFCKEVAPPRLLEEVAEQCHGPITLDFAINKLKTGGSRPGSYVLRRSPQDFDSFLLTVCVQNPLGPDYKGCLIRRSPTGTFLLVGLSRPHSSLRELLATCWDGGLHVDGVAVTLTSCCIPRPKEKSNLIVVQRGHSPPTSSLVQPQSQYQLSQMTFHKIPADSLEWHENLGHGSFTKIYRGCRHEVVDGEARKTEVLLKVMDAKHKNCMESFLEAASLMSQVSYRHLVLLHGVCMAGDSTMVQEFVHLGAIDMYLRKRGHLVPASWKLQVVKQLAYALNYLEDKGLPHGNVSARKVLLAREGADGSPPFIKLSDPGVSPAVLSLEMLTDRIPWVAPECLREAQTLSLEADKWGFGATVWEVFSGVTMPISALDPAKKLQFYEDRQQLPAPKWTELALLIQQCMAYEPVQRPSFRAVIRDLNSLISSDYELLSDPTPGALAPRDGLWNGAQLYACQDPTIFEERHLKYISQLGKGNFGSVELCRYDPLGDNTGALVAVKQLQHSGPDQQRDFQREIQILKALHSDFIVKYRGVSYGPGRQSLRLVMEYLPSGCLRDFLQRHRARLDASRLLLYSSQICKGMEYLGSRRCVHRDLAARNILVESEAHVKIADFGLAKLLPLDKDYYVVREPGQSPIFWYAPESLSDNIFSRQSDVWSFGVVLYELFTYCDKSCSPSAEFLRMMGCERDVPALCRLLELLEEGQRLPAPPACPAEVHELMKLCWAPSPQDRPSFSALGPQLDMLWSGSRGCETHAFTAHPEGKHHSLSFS
readout.label: pIC50
Value format note: pIC50 is -log10 of concentration (mol/L); just state the number.

Provide one value: measured pIC50 of Fc1ccc(-c2cnc3[nH]cc(-c4ccnc(NC5CC5)n4)c3c2)cc1 [MJ04] 7.55

* * *

test: Pharmacokinetic study, dermal application; type: in vivo, C57BL/6 mice; conditions: male, C57BL/6, mouse, topical or ocular; topical dose 30 mg/kg, plasma
readout.label: Tmax

Provide one value: measured Tmax of Fc1ccc(-c2cnc3[nH]cc(-c4ccnc(NC5CC5)n4)c3c2)cc1 1 h

* * *

assay: Body weight, biochemical and haematological parameters in DHT-induced AGA mice (0.5% testosterone then topical treatment); assay type: in vivo, C57BL/6J mice; conditions: Day 21; 0.016 mg/Kg; unit assumed
readout.label: LYMPH (%)
Enter your answer as a number in %; do not include the unit.

Provide one value: measured LYMPH of Fc1ccc(-c2cnc3[nH]cc(-c4ccnc(NC5CC5)n4)c3c2)cc1 73.3

* * *

test system: Panc-2; assay: MTT cell viability assay Panc-2; assay type: cell-based; details: 48 h
Doc: threshold 7 µM (exclusive). Items with IC50 beneath it return class 1; others return class 0.

In plain terms, does Clc1ccc(-c2cnc3[nH]cc(-c4ccnc(NC5CC5)n4)c3c2)cc1 come in under 7 µM for IC50? class 0

In plain terms, does Nc1nccc(-c2c[nH]c3ncc(-c4cccc(F)c4)cc23)n1 come in under 7 µM for IC50? class 1

In plain terms, does CSc1ccc(-c2cnc3[nH]cc(-c4ccnc(NC5CC5)n4)c3c2)cc1 come in under 7 µM for IC50? class 1

In plain terms, does Fc1ccc(-c2cnc3[nH]cc(-c4ccnc(NC5CC5)n4)c3c2)cc1 come in under 7 µM for IC50? class 1

In plain terms, does CSc1ccccc1-c1cnc2[nH]cc(-c3ccnc(NC4CC4)n3)c2c1 come in under 7 µM for IC50? class 0

In plain terms, does Nc1nccc(-c2c[nH]c3ncc(-c4cccc(C(F)(F)F)c4)cc23)n1 come in under 7 µM for IC50? class 0

In plain terms, does Fc1ccc(-c2cnc3[nH]cc(-c4ccnc(NCCN5CCOCC5)n4)c3c2)cc1 come in under 7 µM for IC50? class 0

In plain terms, does c1coc(-c2cnc3[nH]cc(-c4ccnc(NC5CC5)n4)c3c2)c1 come in under 7 µM for IC50? class 1

In plain terms, does Fc1cccc(-c2cnc3[nH]cc(-c4ccnc(NC5CC5)n4)c3c2)c1 come in under 7 µM for IC50? class 0

In plain terms, does c1cncc(-c2cnc3[nH]cc(-c4ccnc(NCCN5CCOCC5)n4)c3c2)c1 come in under 7 µM for IC50? class 0

* * *

Target: JAK1 (Homo sapiens, UniProt P23458)
Construct: purchased Promega Corporation VA7207
Sequence (P23458 whole entry): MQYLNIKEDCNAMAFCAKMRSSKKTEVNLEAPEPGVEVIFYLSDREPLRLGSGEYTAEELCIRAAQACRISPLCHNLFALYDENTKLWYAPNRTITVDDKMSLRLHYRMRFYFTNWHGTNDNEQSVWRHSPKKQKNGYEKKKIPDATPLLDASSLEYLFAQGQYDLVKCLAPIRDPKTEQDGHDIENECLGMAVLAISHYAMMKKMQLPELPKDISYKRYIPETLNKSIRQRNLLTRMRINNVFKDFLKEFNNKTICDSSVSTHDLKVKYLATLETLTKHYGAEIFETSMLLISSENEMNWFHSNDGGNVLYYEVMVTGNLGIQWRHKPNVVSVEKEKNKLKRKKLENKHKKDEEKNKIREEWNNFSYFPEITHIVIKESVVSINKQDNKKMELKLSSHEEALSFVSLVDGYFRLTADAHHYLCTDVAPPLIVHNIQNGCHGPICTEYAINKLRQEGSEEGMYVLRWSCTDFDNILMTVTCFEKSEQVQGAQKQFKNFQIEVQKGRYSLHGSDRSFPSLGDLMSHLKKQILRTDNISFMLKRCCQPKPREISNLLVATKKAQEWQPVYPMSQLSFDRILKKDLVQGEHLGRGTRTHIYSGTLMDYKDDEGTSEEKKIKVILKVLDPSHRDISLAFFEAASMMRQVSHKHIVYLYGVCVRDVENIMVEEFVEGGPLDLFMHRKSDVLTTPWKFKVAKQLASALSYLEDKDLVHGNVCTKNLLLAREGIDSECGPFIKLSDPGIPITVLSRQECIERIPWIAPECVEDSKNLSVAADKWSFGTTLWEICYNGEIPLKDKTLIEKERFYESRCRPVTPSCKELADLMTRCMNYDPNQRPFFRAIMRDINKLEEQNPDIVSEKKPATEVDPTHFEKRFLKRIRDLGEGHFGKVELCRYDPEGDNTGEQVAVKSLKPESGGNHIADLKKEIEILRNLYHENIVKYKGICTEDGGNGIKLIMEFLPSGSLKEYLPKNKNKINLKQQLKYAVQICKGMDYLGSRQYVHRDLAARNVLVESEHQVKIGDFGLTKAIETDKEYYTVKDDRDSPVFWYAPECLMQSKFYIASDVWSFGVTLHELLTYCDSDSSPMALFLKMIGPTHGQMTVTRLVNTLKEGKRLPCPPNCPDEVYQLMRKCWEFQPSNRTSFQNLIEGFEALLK
Assay: Cell-free kinase assay JAK1
Assay type: biochemical
Conditions: Km ATP
Experimental: The cell-free kinase assays of small molecules were determined by following the manufacturer-recommended protocols. Different concentrations in triplicate were used to determine the IC50 value of the hit molecules (active molecules). For data analysis, GraphPad Prism V9.5 Software and a sigmoidal dose–response (variable slope) equation were used. Each value represents an average of three replicates per concentration.
readout.label: pIC50
Value format note: pIC50 is -log10 of concentration (mol/L); just state the number.

Provide one value: measured pIC50 of Fc1ccc(-c2cnc3[nH]cc(-c4ccnc(NC5CC5)n4)c3c2)cc1 6.72
